target_or_system: human recombinant H1 receptor (Homo sapiens)
Sequence (P35367 whole entry): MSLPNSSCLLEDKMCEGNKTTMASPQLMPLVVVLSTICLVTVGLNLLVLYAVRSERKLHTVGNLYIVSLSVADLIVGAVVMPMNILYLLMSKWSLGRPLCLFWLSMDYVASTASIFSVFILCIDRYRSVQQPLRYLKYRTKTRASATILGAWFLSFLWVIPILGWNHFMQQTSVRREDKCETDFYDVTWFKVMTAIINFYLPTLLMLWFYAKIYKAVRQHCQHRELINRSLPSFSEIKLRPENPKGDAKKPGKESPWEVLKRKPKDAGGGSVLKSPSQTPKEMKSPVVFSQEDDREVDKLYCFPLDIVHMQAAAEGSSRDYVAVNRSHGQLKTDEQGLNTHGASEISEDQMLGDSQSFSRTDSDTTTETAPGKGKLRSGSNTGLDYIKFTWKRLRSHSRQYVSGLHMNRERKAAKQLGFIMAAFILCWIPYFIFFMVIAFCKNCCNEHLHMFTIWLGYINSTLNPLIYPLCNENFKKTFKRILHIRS
experiment_description: H1 inverse agonism (IP1 accumulation in HEK293/hm H1 cells)
recorded_conditions: IP1 accumulation, HEK293/hm H1 cells
pIC50: −log10 of the molar value. Structures can show the parent of a compound that is named as a salt.
test_readout: pIC50

Cc1cc2n(c1)Cc1cc(Cl)ccc1N=C2N1CCN(CC(C)(C)C(=O)O)CC1 [Example 13, dihydrochloride]; 7.27

###

target_or_system: 5-HT2B receptors (Homo sapiens, UniProt P41595)
Sequence (P41595 whole entry): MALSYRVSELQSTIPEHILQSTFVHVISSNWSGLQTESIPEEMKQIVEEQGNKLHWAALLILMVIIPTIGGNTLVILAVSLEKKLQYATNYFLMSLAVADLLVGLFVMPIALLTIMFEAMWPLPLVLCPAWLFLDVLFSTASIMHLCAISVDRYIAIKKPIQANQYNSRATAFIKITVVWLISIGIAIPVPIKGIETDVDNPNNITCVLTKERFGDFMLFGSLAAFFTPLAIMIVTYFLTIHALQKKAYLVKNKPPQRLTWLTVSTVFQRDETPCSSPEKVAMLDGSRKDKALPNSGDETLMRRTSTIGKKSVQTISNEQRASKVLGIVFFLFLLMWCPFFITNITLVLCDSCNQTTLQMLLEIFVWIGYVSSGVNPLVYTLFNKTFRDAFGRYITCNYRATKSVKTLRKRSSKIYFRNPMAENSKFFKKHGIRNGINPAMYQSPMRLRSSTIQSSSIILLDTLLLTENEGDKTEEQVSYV
experiment_description: 5-HT2B agonist functional activity assay
Type: cell-based
Structures can show the parent of a compound that is named as a salt.
test_readout: EC50

Cc1cc2n(c1)Cc1cc(Cl)ccc1N=C2N1CCN(CC(C)(C)C(=O)O)CC1 [Example 13, dihydrochloride]; > 10 µM

###

target_or_system: Dopamine D2 (Homo sapiens)
Sequence (P14416 whole entry): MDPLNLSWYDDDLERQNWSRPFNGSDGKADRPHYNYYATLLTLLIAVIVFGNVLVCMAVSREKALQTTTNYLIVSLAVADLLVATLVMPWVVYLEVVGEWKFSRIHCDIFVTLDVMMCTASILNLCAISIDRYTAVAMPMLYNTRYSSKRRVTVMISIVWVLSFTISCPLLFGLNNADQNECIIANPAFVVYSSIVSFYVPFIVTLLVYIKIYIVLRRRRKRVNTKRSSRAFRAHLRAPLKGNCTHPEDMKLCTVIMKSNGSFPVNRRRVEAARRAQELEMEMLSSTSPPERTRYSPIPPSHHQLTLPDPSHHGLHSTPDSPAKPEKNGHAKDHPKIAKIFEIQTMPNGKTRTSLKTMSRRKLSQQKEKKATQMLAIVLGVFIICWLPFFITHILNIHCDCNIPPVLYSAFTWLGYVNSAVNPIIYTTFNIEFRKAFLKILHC
experiment_description: Dopamine D2 binding
Text: […]
pKi: −log10 of the molar value. Where a name gives a salt, the structure may show the parent alone.
test_readout: pKi

Cc1cc2n(c1)Cc1cc(Cl)ccc1N=C2N1CCN(CC(C)(C)C(=O)O)CC1 [Example 13, dihydrochloride]; 5.47

###

target_or_system: 5-HT1F (Homo sapiens, UniProt P30939)
Sequence (P30939 whole entry, species assumed): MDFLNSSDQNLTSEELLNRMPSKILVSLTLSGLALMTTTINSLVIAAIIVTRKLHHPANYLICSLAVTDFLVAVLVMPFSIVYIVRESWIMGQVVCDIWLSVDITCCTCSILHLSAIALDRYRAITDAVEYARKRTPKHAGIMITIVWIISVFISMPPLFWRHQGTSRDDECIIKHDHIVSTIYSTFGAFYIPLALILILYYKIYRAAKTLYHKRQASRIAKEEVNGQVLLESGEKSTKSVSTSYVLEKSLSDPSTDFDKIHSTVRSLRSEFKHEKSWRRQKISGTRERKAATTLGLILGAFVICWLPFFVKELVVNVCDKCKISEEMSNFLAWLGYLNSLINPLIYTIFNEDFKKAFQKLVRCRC
Structures can show the parent of a compound that is named as a salt.
test_readout: Ki

Cc1cc2n(c1)Cc1cc(Cl)ccc1N=C2N1CCN(CC(C)(C)C(=O)O)CC1 [Example 13, dihydrochloride]; > 8.25 µM

###

target_or_system: 5-HT1A (Homo sapiens, UniProt P08908)
Sequence (P08908 1-422): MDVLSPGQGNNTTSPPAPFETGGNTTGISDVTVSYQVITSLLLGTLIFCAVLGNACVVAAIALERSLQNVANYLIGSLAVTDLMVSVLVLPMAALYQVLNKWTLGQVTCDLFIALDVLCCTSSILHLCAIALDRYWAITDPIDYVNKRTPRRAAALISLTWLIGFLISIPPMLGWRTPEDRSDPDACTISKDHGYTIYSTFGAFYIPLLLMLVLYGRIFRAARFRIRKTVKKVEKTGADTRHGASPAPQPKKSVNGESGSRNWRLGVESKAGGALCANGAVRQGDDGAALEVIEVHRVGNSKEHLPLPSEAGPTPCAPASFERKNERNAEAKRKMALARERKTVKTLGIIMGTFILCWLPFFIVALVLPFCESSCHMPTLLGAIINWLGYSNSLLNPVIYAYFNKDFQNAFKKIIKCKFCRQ
pKi: −log10 of the molar value.
test_readout: pKi

Cc1cc2n(c1)Cc1cc(Cl)ccc1N=C2N1CCN(CC(C)(C)C(=O)O)CC1; < 5.16

###

target_or_system: Dopamine D1 (Homo sapiens)
Sequence (P21728 whole entry): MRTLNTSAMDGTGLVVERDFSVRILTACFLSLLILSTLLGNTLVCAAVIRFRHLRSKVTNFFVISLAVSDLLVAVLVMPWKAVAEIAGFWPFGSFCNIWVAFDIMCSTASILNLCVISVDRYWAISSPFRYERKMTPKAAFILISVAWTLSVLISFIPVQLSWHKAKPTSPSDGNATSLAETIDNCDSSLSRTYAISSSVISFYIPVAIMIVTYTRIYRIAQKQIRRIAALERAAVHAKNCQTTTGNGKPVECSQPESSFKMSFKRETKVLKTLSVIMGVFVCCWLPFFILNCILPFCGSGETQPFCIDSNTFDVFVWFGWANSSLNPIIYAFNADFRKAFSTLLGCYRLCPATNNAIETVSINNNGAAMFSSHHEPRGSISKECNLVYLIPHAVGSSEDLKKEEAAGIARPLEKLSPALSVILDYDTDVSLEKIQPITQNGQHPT
experiment_description: Dopamine D1 binding
pKi: −log10 of the molar value. Where a name gives a salt, the structure may show the parent alone.
# key: entry, value: pKi
test_readout: pKi

Cc1cc2n(c1)Cc1cc(Cl)ccc1N=C2N1CCN(CC(C)(C)C(=O)O)CC1 [Example 13, dihydrochloride]; 5.73
Cc1cc2n(c1)Cc1cc(Cl)ccc1N=C2N1CCN(CC(C)(C)C(=O)O)CC1 [Example 1]; 5.42

###

target_or_system: Adrenergic alpha1B (Homo sapiens, UniProt P35368)
Sequence (P35368 whole entry): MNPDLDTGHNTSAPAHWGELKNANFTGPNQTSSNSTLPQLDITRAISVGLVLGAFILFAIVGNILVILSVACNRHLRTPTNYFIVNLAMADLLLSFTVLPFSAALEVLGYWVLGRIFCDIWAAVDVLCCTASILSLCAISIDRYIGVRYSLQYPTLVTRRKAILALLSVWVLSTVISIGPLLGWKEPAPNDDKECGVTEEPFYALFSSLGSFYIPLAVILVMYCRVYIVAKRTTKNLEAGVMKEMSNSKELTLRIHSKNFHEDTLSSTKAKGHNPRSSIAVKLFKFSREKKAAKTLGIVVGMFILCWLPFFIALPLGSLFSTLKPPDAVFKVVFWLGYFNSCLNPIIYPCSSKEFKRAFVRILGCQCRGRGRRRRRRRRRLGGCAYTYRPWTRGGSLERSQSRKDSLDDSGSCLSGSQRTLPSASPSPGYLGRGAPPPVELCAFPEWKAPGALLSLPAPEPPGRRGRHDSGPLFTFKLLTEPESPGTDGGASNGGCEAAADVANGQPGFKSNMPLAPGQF
experiment_description: Adrenergic alpha1B binding
test_readout: Ki

Cc1cc2n(c1)Cc1cc(Cl)ccc1N=C2N1CCN(CC(C)(C)C(=O)O)CC1 [Example 1]; > 10.9 µM

# credit: patent US8314092B2
